Ki: recorded values
- Measurement target: recombinant human GSK3β (Homo sapiens)
- Sequence (P49841 whole entry): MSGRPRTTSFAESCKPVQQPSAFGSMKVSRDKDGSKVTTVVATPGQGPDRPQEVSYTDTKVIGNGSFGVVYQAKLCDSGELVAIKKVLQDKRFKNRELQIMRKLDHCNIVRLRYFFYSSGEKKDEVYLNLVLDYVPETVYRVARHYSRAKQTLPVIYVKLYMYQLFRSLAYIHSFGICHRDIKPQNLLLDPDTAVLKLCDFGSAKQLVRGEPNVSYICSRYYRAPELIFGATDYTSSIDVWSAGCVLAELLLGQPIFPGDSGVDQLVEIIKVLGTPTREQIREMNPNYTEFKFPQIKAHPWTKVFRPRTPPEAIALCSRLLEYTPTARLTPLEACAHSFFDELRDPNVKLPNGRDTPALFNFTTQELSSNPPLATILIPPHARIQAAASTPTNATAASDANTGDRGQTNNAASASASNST
- Test name: GSK3β Scintillation Proximity Assay (ATP competition)
- Condition description: recombinant human GSK3β SPA; 1 μM ATP, 1 μM biotinylated peptide substrate; Ki calculated with Km of ATP 20 μM
Answer with a number only, understood to be in nM.

// known answers, use as guide
Cc1ncc(-c2nc(Nc3ccc(CN4CCCN(C)CC4)nc3)ncc2F)n1C1CCOCC1 [Example 13]; 290
Cc1ncc(-c2nc(NC3CCN(S(=O)(=O)c4ccccc4)CC3)ncc2F)n1C1CCOCC1 [Example 43]; 53
Cc1ncc(-c2nc(Nc3ccc(CN4CC(C)OC(C)C4)nc3)ncc2F)n1C1CCOCC1 (stereo not shown) [Example 17]; 760

As a next step, examine the compound that follows.
Report the value of Ki obtained on recombinant human GSK3β (Homo sapiens) for Cc1ncc(-c2nc(Nc3ccc(CNCC#N)nc3)ncc2F)n1C1CCOCC1 [Example 29] .
48
